system: A549/ATCC NSCLC; assay: NCI-60 one-dose screen, 48 h; conditions: 10 µM unless noted
Compounds without any hit were thinned out: in the full panel of roughly 83,000, 20% have a hit. Calls of active or inactive are those of the source. The calls were made as follows: active = growth percent below 10; inactive = the rest.
Your reply should match one of these outcome classes. 1.0 = active, 0.0 = inactive

Past entries and their recorded results:
Kindly provide the recorded test outcome for the following compound: COc1ccc(-c2cc(-c3ccc(Cl)cc3)c(C#N)c(=O)n2Cc2ccc(C(=O)O)cc2)cc1
0.0

Kindly provide the recorded test outcome for the following compound: C#Cc1ccc(C(=O)NCc2ccc(/C=C/C(=O)c3nccn3C)cc2)cc1
0.0

Kindly provide the recorded test outcome for the following compound: C[C@@H]1C[C@H]2C(=O)O[C@@H](C)C(NC(=O)[C@H](Cc3cc(F)cc(F)c3)NC(=O)Nc3ccc(Cl)cc3F)C(=O)N3CCC[C@H]3C(=O)N3CCCC[C@H]3C(=O)N[C@@H](CO)C(=O)N2C1 (stereo partly drawn)
0.0

New cases:
Kindly provide the recorded test outcome for the following compound: Cc1[nH]c(C(=O)Nc2ccccc2OCc2cccc(C(=O)N3CCC[C@@H](N)C3)c2)c(Cl)c1Cl
1.0

Kindly provide the recorded test outcome for the following compound: O=C(NCCN1CCCC1)c1ccc(-c2nc3ccc4[nH]ncc4c3c3c2CCCC3)cc1
1.0

Kindly provide the recorded test outcome for the following compound: C=CC(=O)N1CC=C(c2cc3c(N[C@H](C)c4ccccc4)ncnc3[nH]2)CC1
0.0

Kindly provide the recorded test outcome for the following compound: N#Cc1c(-c2cccs2)cc(-c2cnccn2)nc1SCC(=O)c1ccc(F)cc1
0.0

Kindly provide the recorded test outcome for the following compound: O=C(NNc1nc2cc(F)ccc2n2c(CN3CC4CNCC4C3)ccc12)c1cnccn1 (stereo not drawn)
0.0

----------
tested on: IGROV1 ovarian; assay: NCI-60 one-dose screen, 48 h (100 = growth as untreated, 0 = no growth, -100 = all killed); conditions: 10 µM unless noted
This is part of a sample that, as a whole, favours compounds with a hit. Of some 83,000 tested, about 20% had one in any assay.
growth by entry:
Numbers only; they are read as %.

Check out these entries, answers already filled in.
// lookup growth for COc1ccc(N2CCN(C3=C(Cl)C(=O)C(C)=C(C)C3=O)CC2)cc1
103

// lookup growth for FC(F)(F)c1cc(Nc2cccc(Oc3ccc(NC4=NCCN4)nc3)c2)ccc1Cl
-1.17

// lookup growth for NC(N)=Nc1ccc(Oc2cccc(Nc3cccc(C(F)(F)F)c3)c2)cn1
13.8

New cases:
// lookup growth for CNC(=O)c1cc(Oc2ccc3nc(NC(=O)c4cc(N5CCOCC5)cc(C(F)(F)F)c4)sc3c2)ccn1
99.6

// lookup growth for CCN(CC)c1ccc2c(c1)Oc1nc(N)c(C#N)c(N)c1C2Sc1ccc(F)cc1 (stereo not given)
-77.9

// lookup growth for Cc1ccc2c(c1)Oc1nc(N)c(C#N)c(N)c1C2Sc1ccc(F)cc1 (stereo not given)
-91.3

// lookup growth for COc1ccc(N2C(=O)c3cc(Cl)ccc3NC2SCc2ccccc2)cc1 (stereo not given)
99.5

// lookup growth for Cn1ccnc1C(=O)/C=C/c1ccc(CNC(=O)c2ccc(Cl)cc2)cc1
12.2

// lookup growth for C#CCn1cccc1CNc1ccc(OC)cc1
-68.5

// lookup growth for COc1cccc(/C=C(/C)c2ccc3cccc(OC)c3[o+]2)c1O
94.5

Each recorded value in this set is attributed to PubChem BioAssay (NCI).
